system: 422866-222-R5-J1-PDC spheroids with HUVEC/MSC, viability; assay: Anticancer human tumor 422866-222-R5-J1-PDC patient-derived pancreatic adenocarcinoma cell line growth inhibition [GQUAD]; conditions: second compound 10 µM; first compound 10 µM; stronger effect = lower value;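 also: spheroids exposed to compounds for seven days before reading; percent viability relative to DMSO vehicle control taken as 100%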
Items are presented alongside their recorded viability, T/C.
attribute_measured: viability, T/C (%)

CC(C)n1c(=O)n(C)c2cnc3cc(F)c(-c4ccc(OCCCN5CCCCC5)nc4)cc3c21 + Cc1cnc(CNC(=O)c2c(=O)c3ccc(N4CCCN(C)CC4)nc3n3c2sc2ccccc23)cn1 : 62.5
CC(=O)O[C@H]1C(=O)[C@@]2(C)[C@H]([C@H](OC(=O)c3ccccc3)[C@]3(O)C[C@H](OC(=O)[C@H](O)[C@@H](NC(=O)c4ccccc4)c4ccccc4)C(C)=C1C3(C)C)[C@]1(OC(C)=O)CO[C@@H]1C[C@@H]2O + Cc1cnc(CNC(=O)c2c(=O)c3ccc(N4CCCN(C)CC4)nc3n3c2sc2ccccc23)cn1 : 123
CCCS(=O)(=O)Nc1ccc(F)c(C(=O)c2c[nH]c3ncc(-c4ccc(Cl)cc4)cc23)c1F + CN(C)c1ccc(Nc2c3ccc(NC(=O)CCN4CCCC4)cc3nc3cc(NC(=O)CCN4CCCC4)ccc23)cc1 : 153
C#Cc1c(F)ccc2cc(O)cc(-c3ncc4c(N5CC6CCC(C5)N6)nc(OCC56CCCN5CC(F)C6)nc4c3F)c12 (stereo unspecified) + CN(C)c1ccc(Nc2c3ccc(NC(=O)CCN4CCCC4)cc3nc3cc(NC(=O)CCN4CCCC4)ccc23)cc1 : 27.2
O=c1[nH]cc(F)c(=O)[nH]1 + Cc1[nH]c2ccc(F)cc2c1-c1nc2c3cccnc3c3ncccc3c2[nH]1 : 53.3
CCCS(=O)(=O)Nc1ccc(F)c(C(=O)c2c[nH]c3ncc(-c4ccc(Cl)cc4)cc23)c1F + Cc1cnc(CNC(=O)c2c(=O)c3ccc(N4CCCN(C)CC4)nc3n3c2sc2ccccc23)cn1 : 94.2
COc1cc(C2c3cc4c(cc3C(OC3OC5COC(C)OC5C(O)C3O)C3COC(=O)C23)OCO4)cc(OC)c1O (stereo unspecified) + Cc1[nH]c2ccc(F)cc2c1-c1nc2c3cccnc3c3ncccc3c2[nH]1 : 46.8
Nc1ccn(C2OC(CO)C(O)C2(F)F)c(=O)n1 (stereo unspecified) + CN(C)c1ccc(Nc2c3ccc(NC(=O)CCN4CCCC4)cc3nc3cc(NC(=O)CCN4CCCC4)ccc23)cc1 : 49
CC1COCCN1c1cc(C2(S(C)(=N)=O)CC2)nc(-c2ccnc3[nH]ccc23)n1 (stereo unspecified) + CN(C)c1ccc(Nc2c3ccc(NC(=O)CCN4CCCC4)cc3nc3cc(NC(=O)CCN4CCCC4)ccc23)cc1 : 41.2
CC(C)(O)C1CCC(Nc2ccc3ncc(-c4cccc(C(F)(F)F)c4)n3n2)CC1 (stereo unspecified) + Cc1cnc(CNC(=O)c2c(=O)c3ccc(N4CCCN(C)CC4)nc3n3c2sc2ccccc23)cn1 : 0.79
C#Cc1c(F)ccc2cc(O)cc(-c3ncc4c(N5CC6CCC(C5)N6)nc(OCC56CCCN5CC(F)C6)nc4c3F)c12 (stereo unspecified) + Cc1cnc(CNC(=O)c2c(=O)c3ccc(N4CCCN(C)CC4)nc3n3c2sc2ccccc23)cn1 : 34.4
CC(C)(O)C1CCC(Nc2ccc3ncc(-c4cccc(C(F)(F)F)c4)n3n2)CC1 (stereo unspecified) + Cc1[nH]c2ccc(F)cc2c1-c1nc2c3cccnc3c3ncccc3c2[nH]1 : 26
O=C(NO)c1cnc(N2CCN(S(=O)(=O)c3ccc4ccccc4c3)CC2)nc1 + Cc1[nH]c2ccc(F)cc2c1-c1nc2c3cccnc3c3ncccc3c2[nH]1 : 64.4
COc1cc(C2c3cc4c(cc3C(OC3OC5COC(C)OC5C(O)C3O)C3COC(=O)C23)OCO4)cc(OC)c1O (stereo unspecified) + CN(C)c1ccc(Nc2c3ccc(NC(=O)CCN4CCCC4)cc3nc3cc(NC(=O)CCN4CCCC4)ccc23)cc1 : 38.2
O=C(c1cc(Cc2n[nH]c(=O)c3ccccc23)ccc1F)N1CCN(C(=O)C2CC2)CC1 + Cc1[nH]c2ccc(F)cc2c1-c1nc2c3cccnc3c3ncccc3c2[nH]1 : 77.7
CC(C)n1c(=O)n(C)c2cnc3cc(F)c(-c4ccc(OCCCN5CCCCC5)nc4)cc3c21 + Cc1[nH]c2ccc(F)cc2c1-c1nc2c3cccnc3c3ncccc3c2[nH]1 : 54.5
CC(C)(O)C1CCC(Nc2ccc3ncc(-c4cccc(C(F)(F)F)c4)n3n2)CC1 (stereo unspecified) + CN(C)c1ccc(Nc2c3ccc(NC(=O)CCN4CCCC4)cc3nc3cc(NC(=O)CCN4CCCC4)ccc23)cc1 : 55.5
CC(=O)O[C@H]1C(=O)[C@@]2(C)[C@H]([C@H](OC(=O)c3ccccc3)[C@]3(O)C[C@H](OC(=O)[C@H](O)[C@@H](NC(=O)c4ccccc4)c4ccccc4)C(C)=C1C3(C)C)[C@]1(OC(C)=O)CO[C@@H]1C[C@@H]2O + CN(C)c1ccc(Nc2c3ccc(NC(=O)CCN4CCCC4)cc3nc3cc(NC(=O)CCN4CCCC4)ccc23)cc1 : 92.4
O=C(c1cc(Cc2n[nH]c(=O)c3ccccc23)ccc1F)N1CCN(C(=O)C2CC2)CC1 + Cc1cnc(CNC(=O)c2c(=O)c3ccc(N4CCCN(C)CC4)nc3n3c2sc2ccccc23)cn1 : 69.2
C=CCn1c(=O)c2cnc(Nc3ccc(N4CCN(C)CC4)cc3)nc2n1-c1cccc(C(C)(C)O)n1 + Cc1[nH]c2ccc(F)cc2c1-c1nc2c3cccnc3c3ncccc3c2[nH]1 : 79.3
Nc1ccn(C2OC(CO)C(O)C2(F)F)c(=O)n1 (stereo unspecified) + Cc1[nH]c2ccc(F)cc2c1-c1nc2c3cccnc3c3ncccc3c2[nH]1 : 41.2
